Provenance of the data: the supplement of paper PMC11246515

experiment: total protein half-life in vivo (active degradation + dilution); higher = more stable protein; settings: wild type E. coli NCM3722; growth: N-lim chemostat; doubling time 12 h
Reported Property: total protein half-life in vivo (h)
Record the value in h, omitting the unit from your answer.

Sequence Record: MVKLPPLSLYIHIPWCVQKCPYCDFNSHALKGEVPHDDYVQHLLNDLDNDVAYAQGREVKTIFIGGGTPSLLSGPAMQTLLDGVRARLPLAADAEITMEANPGTVEADRFVDYQRAGVNRISIGVQSFSEEKLKRLGRIHGPQEAKRAAKLASGLGLRSFNLDLMHGLPDQSLEEALGDLRQAIELNPPHLSWYQLTIEPNTLFGSRPPVLPDDDALWDIFEQGHQLLTAAGYQQYETSAYAKPGYQCQHNLNYWRFGDYIGIGCGAHGKVTFPDGRILRTTKTRHPRGFMQGRYLESQRDVEATDKPFEFFMNRFRLLEAAPRVEFIAYTGLCEDVIRPQLDEAIAQGYLTECADYWQITEHGKLFLNSLLELFLAE
total protein half-life in vivo [h]: 6.81
//
Sequence Record: MERFDAIIIGAGAAGMFCSALAGQAGRRVLLIDNGKKPGRKILMSGGGRCNFTNLYVEPGAYLSQNPHFCKSALARFTQWDFIDLVNKHGIAWHEKTLGQLFCDDSAQQIVDMLVDECEKGNVTFRLRSEVLSVAKDETGFTLDLNGMTVGCEKLVIATGGLSMPGLGASPFGYKIAEQFGLNVLPTRAGLVPFTLHKPLLEELQVLAGVAVPSVITAENGTVFRENLLFTHRGLSGPAVLQISSYWQPGEFVSINLLPDVDLETFLNEQRNAHPNQSLKNTLAVHLPKRLVERLQQLGQIPDVSLKQLNVRDQQALISTLTDWRVQPNGTEGYRTAEVTLGGVDTNELSSRTMEARKVPGLYFIGEVMDVTGWLGGYNFQWAWSSAWACAQDLIAAKSS
total protein half-life in vivo [h]: 9.59
//
Sequence Record: MRTISYSEARQNLSATMMKAVEDHAPILITRQNGEACVLMSLEEYNSLEETAYLLRSPANARRLMDSIDSLKSGKGTEKDIIE
total protein half-life in vivo [h]: 2.86

Now consider a different sequence.
Lab note: MKITLSKRIGLLAILLPCALALSTTVHAETNKLVIESGDSAQSRQHAAMEKEQWNDTRNLRQKVNKRTEKEWDKADAAFDNRDKCEQSANINAYWEPNTLRCLDRRTGRVITP gave total protein half-life in vivo of 11

* * *

assay: total protein half-life in vivo (active degradation + dilution); higher = more stable protein; conditions: E. coli NCM3722 delta-smpB; growth: N-lim chemostat; doubling time 6 h
Each item that follows carries a reported total protein half-life in vivo.
Give a bare numeral; the unit h is implied.

Worked set:
Sequence Record: MKFKVIALAALMGISGMAAQANELPDGPHIVTSGTASVDAVPDIATLAIEVNVAAKDAATAKKQADERVAQYISFLELNQIAKKDISSANLRTQPDYDYQDGKSILKGYRAVRTVEVTLRQLDKLNSLLDGALKAGLNEIRSVSLGVAQPDAYKDKARKAAIDNAIHQAQELANGFHRKLGPVYSVRYHVSNYQPSPMVRMMKADAAPVSAQETYEQAAIQFDDQVDVVFQLEPVDQQPAKTPAAQ [P0ADS6]
total protein half-life in vivo, h: 5.98
//
Sequence Record: MKILVIGPSWVGDMMMSQSLYRTLQARYPQAIIDVMAPAWCRPLLSRMPEVNEAIPMPLGHGALEIGERRKLGHSLREKRYDRAYVLPNSFKSALVPFFAGIPHRTGWRGEMRYGLLNDVRVLDKEAWPLMVERYIALAYDKGIMRTAQDLPQPLLWPQLQVSEGEKSYTCNQFSLSSERPMIGFCPGAEFGPAKRWPHYHYAELAKQLIDEGYQVVLFGSAKDHEAGNEILAALNTEQQAWCRNLAGETQLDQAVILIAACKAIVTNDSGLMHVAAALNRPLVALYGPSSPDFTPPLSHKARVIRLITGYHKVRKGDAAEGYHQSLIDITPQRVLEELNALLLQEEA
total protein half-life in vivo, h: 6.11

total protein half-life in vivo for MIALIQRVTRASVTVEGEVTGEIGAGLLVLLGVEKDDDEQKANRLCERVLGYRIFSDAEGKMNLNVQQAGGSVLVVSQFTLAADTERGMRPSFSKGASPDRAEALYDYFVERCRQQEMNTQTGRFAADMQVSLVNDGPVTFWLQV [P0A6M4] is 4.06
